Measured values drawn from patent US20090010925 for this set.

TEST_TARGET: T1, VEGF(8-109) (human, UniProt P15692)
T1 chain: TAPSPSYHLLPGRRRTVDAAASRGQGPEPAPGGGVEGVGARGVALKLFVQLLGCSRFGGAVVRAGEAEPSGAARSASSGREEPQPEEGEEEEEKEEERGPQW
TEST_METHOD_NOTES: SPR, 25C
MEASURED_ENDPOINT: Kd (nM)
Report only the number, with the unit nM understood.

Take a look at these entries with their results.
BINDER	Kd / nM
Y0241-7 (antibody, V domains shown) VH: EVQLVESGGGLVQPGGSLRLSCAASGYDWTNYGINWVRQAPGKGLEWVGWINTYTGEPTYAADFKRRFTFSLDTSKSTAYLQMNSLRAEDTAVYYCAKYPHYYGSSHWYFDVWGQGTL VL: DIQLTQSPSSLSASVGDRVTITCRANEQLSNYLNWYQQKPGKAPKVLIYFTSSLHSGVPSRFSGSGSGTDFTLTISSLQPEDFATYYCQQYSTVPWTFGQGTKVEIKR	3
Y0239-12 (antibody, V domains shown) VH: EVQLVESGGGLVQPGGSLRLSCAASGYTFTNYGMNWVRQAPGKGLEWVGWINTYTGEPTYAADFKRRFTFSLDTSKSTAYLQMNSLRAEDTAVYYCAKYPHYYAHEKKSHWYFDVWGQGTL VL: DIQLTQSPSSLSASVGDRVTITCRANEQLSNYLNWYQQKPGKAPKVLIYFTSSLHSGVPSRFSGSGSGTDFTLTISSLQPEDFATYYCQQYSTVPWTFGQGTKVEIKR	0.6

Query (binder): Y0261-6 (antibody, V domains shown) VH: EVQLVESGGGLVQPGGSLRLSCAASGYTFTNYGMNWVRQAPGKGLEWVGWINTYTGEPTYAADFKRRFTFSLDTSKSTAYLQMNSLRAEDTAVYYCAKYPHYYLKDKKSHWYFDVWGQGTL VL: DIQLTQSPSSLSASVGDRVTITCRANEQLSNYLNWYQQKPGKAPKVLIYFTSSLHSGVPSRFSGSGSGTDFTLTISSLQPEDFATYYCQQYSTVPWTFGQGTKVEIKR ; field requested: Kd
0.6
